Source listed as patent US8063035B2.

# Tested on: HeLa Cells
# test name: pHH3(S10), Mitotic Cells, and DNA Content Assays
# Assay type: cell-based
# details: Homo sapiens, 23 hours exposure, MSR 2.4, read-out: DNA content EC50
experimental endpoint: pEC50
Scale: negative log10 of molar concentration, which is what pEC50 denotes.

// pEC50 value for CC(N)c1ccc(F)cc1-c1cccc2cc(-c3nc(NCCn4ccnn4)ncc3F)sc12 (racemic) [Example 57] : 7.40

====

# target system: Plk1-Flag-His6 tag fusion enzyme (Homo sapiens, UniProt P53350)
# Construct: FLAG (C); His6 (C); The substrate was made in E. coli BL21 (pGEX-2T)
# Sequence (P53350 whole entry, the tested form may be a part): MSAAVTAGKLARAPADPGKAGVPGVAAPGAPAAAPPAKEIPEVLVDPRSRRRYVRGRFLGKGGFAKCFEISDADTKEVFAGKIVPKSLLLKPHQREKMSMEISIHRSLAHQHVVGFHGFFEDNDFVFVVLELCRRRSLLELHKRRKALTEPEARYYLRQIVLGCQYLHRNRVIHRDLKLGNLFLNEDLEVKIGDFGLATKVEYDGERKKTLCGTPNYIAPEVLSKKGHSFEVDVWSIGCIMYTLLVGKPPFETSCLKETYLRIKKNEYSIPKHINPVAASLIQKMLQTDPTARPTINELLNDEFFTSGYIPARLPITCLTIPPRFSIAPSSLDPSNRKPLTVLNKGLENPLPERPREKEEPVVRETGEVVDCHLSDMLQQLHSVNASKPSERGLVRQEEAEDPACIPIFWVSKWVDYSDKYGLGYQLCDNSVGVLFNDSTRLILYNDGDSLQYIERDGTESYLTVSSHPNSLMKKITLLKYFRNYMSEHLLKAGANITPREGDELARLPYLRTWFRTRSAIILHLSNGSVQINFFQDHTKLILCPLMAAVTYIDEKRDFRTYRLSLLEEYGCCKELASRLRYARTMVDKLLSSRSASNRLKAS
# test name: Plk1 Inhibition Assay
# details: absolute IC50, 5.0 μM ATP, GST-Cdc25c (1-206) substrate, 60 min; MSR 3.6
experimental endpoint: pIC50
Scale: negative log10 of molar concentration, which is what pIC50 denotes.

CC(N)c1ccc(F)cc1-c1cccc2cc(-c3nc(NCCn4ccnn4)ncc3F)sc12 (racemic) on Plk1-Flag-His6 tag fusion enzyme (Homo sapiens, UniProt P53350) gives pIC50 = 7.96
